System: RARb homodimer (NR concentration 270 nM)
assay_procedure: PBM binding z-score (relative to random genomic background probes); higher = stronger binding; sequences stand for … in GC…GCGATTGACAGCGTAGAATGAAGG
Field: PBM binding z-score. Provide a value for each of the sequences that follow.
Format: numeric value only, no unit, no commentary.

The sequence "TGAATGAGGTTAAAGATCAGGGATCGTGGCGTCG" showed PBM binding z-score equal to 0.409

The sequence "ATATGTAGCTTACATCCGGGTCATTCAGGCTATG" showed PBM binding z-score equal to 1.78

The sequence "GCTAGTAGATCAAGGTTAAGAAAGACTAAGCTAA" showed PBM binding z-score equal to 0.204

The sequence "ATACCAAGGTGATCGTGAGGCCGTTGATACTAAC" showed PBM binding z-score equal to 0.758

The sequence "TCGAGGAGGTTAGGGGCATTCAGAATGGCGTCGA" showed PBM binding z-score equal to 1.36

The sequence "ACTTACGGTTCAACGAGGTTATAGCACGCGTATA" showed PBM binding z-score equal to 1.54

The sequence "TAGCTTAGGTCATTCAGGGGCCAGTATAGAAAGC" showed PBM binding z-score equal to 3.41

The sequence "GGAACGAGGGCAGAGTTGATAGCATCTGTCGACG" showed PBM binding z-score equal to 0.448

The sequence "CCTACTGGGACATCAGGTCATTGATATCAACGTT" showed PBM binding z-score equal to 2.48

The sequence "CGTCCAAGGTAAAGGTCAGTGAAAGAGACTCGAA" showed PBM binding z-score equal to 4.43

The sequence "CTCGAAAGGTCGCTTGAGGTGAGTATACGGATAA" showed PBM binding z-score equal to 2.86

The sequence "ATCTCTATGTAAAAGTTCAGTGAATCCCGAGGAT" showed PBM binding z-score equal to 2.26

The sequence "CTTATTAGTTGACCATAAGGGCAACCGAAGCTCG" showed PBM binding z-score equal to 2.23

The sequence "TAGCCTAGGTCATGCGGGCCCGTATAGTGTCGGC" showed PBM binding z-score equal to 2.9

The sequence "CGAACGAGGGCATGAGTTGATGGCAAATGCCGAT" showed PBM binding z-score equal to 0.659

The sequence "TAGCCCAGGTCAGATCGGGCCAGTATACGCTATA" showed PBM binding z-score equal to 2.03
